meta.source: paper PMC7417555

ASSAYED SYSTEM: FUBP1 KH1-2 (UniProt Q96AE4 100-251)
Sequence (Q96AE4 100-251): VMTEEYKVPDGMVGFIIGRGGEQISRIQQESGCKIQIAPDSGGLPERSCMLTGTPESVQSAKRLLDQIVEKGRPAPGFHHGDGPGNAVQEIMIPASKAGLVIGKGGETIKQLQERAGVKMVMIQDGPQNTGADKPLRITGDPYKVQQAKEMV
ASSAY REMARKS: ITC; 150 mM NaCl; range given for the three tandems; ITC: 25 mM HEPES pH 7.5, 50 mM NaCl (150 mM for tandem and KH1-4), 0.5 mM TCEP, 20 C; native PAGE: 200 uM protein, 5x ssDNA, 25 mM HEPES pH 7.5, 50 mM NaCl, 0.5 mM TCEP, 4 C, 0.5x TBE (KH4 0.5x TAE)
APPLIED CONDITIONS: protein: recombinant; tags: His6 removed by TEV
PROPERTY LABEL: Kd

Q) Look up Kd for this binder: ATGTATATTCCCTCGGGATTTTTTATTTTGTGTTATTCCACGGCATG (ssDNA) [47-mer c-Myc FUSE]
A) ~5.29 µM
